# System: Salmonella enterica
# Measurement Protocol: Effect (1 mM) on Salmonella enterica growth under stressing conditions; Expressed as absorbance (OD) at 570 nm; Control 1.23 nm
# Format: functional, organism-based
Reported Absorbance values for the following compounds.
Field format: numeric only.

Before answering, review these 3 worked examples.
C[N+](C)(CC(=O)O)Cc1ccccc1 :: 1.24
COc1cccc(C[N+](C)(C)CC(=O)O)c1 :: 1.11
C[N+](C)(CC(=O)O)Cc1ccc([N+](=O)[O-])cc1 :: 0.07

Could you now consider this next compound?
The reported Absorbance of the compound C[N+](C)(CC(=O)O)Cc1ccccc1[N+](=O)[O-] was 0.23

---

# System: Enterococcus faecalis
# Measurement Protocol: Effect (1 mM) on Enterococcus faecalis growth under stressing conditions; Expressed as absorbance (OD) at 570 nm; Control 1.16 nm
# Format: functional, organism-based
Metric Name: Absorbance
Answer with the value's number alone.

C[N+](C)(CC(=O)O)Cc1ccccc1 :: 1.24
COc1cccc(C[N+](C)(C)CC(=O)O)c1 :: 1.12

C[N+](C)(CC(=O)O)Cc1ccc([N+](=O)[O-])cc1 tested on Enterococcus faecalis gave Absorbance: 1.23

Bench note, Enterococcus faecalis: entry C[N+](C)(CC(=O)O)Cc1ccccc1[N+](=O)[O-] , its Absorbance = 1.3

---

Measured Absorbance, listed per entry.
# Tested on: Pseudomonas aeruginosa
# Measurement Protocol: Effect (1 mM) on Pseudomonas aeruginosa growth under stressing conditions; Expressed as absorbance (OD) at 570 nm; Control 1.24 nm
# Type: functional, organism-based
Enter the number alone.

C[N+](C)(CC(=O)O)Cc1ccccc1 :: 0.06
C[N+](C)(CC(=O)O)Cc1ccccc1[N+](=O)[O-] :: 0.11

Kindly note the recorded Absorbance for C[N+](C)(CC(=O)O)Cc1ccc([N+](=O)[O-])cc1 , which is 0.16

Kindly note the recorded Absorbance for COc1cccc(C[N+](C)(C)CC(=O)O)c1 , which is 1.07

---

# System: Citrobacter freundii
# Measurement Protocol: Effect (1 mM) on Citrobacter freundii growth under stressing conditions; Expressed as absorbance (OD) at 570 nm; Control 1.09 nm
# Assay type: functional, organism-based
Metric Name: Absorbance
Write the value as a bare number.

For orientation, consider the following solved cases.
C[N+](C)(CC(=O)O)Cc1ccc([N+](=O)[O-])cc1 :: 0.03
C[N+](C)(CC(=O)O)Cc1ccccc1 :: 1.32
COc1cccc(C[N+](C)(C)CC(=O)O)c1 :: 1.23

# next compound below
Absorbance for C[N+](C)(CC(=O)O)Cc1ccccc1[N+](=O)[O-] is 0.06

---

# Test system: Corynebacterium glutamicum
# Measurement Protocol: Effect (1 mM) on Corynebacterium glutamicum growth under stressing conditions; Expressed as absorbance (OD) at 570 nm; Control 0.87 nm
# Format: functional, organism-based
Consider the following compounds and their measured Absorbance readings.
API note: the answer field is a bare number with no unit suffix.

Worked set:
C[N+](C)(CC(=O)O)Cc1ccccc1 :: 0.43
C[N+](C)(CC(=O)O)Cc1ccccc1[N+](=O)[O-] :: 0.26
COc1cccc(C[N+](C)(C)CC(=O)O)c1 :: 0.63

So for C[N+](C)(CC(=O)O)Cc1ccc([N+](=O)[O-])cc1 , the logged Absorbance turned out to be 0.33
